Source listed as ChEMBL document CHEMBL1140624.

Experiment: Half life at pH 7
Assay type: ADME
Conditions: buffer
RECORDED ENDPOINT: half-life (h)
Quick note: give the figure in h, leave out the unit.

# lookup: half-life of CC(=O)O[C@H]1C(=O)[C@@]2(C)[C@H]([C@H](OC(=O)c3ccccc3)[C@]3(O)C[C@H](OC(=O)[C@H](OC(=O)COCC(=O)NCCOCCOCCOCCNC(=O)CCC(NC(=O)c4ccc(NCc5cnc6nc(N)[nH]c(=O)c6n5)cc4)C(=O)O)[C@@H](NC(=O)c4ccccc4)c4ccccc4)C(C)=C1C3(C)C)[C@]1(OC(C)=O)CO[C@@H]1C[C@@H]2O (stereo partly specified)
40
